Tested on: H460^C cells
Test: GPX4 inhibitor-induced cell death with FSEN1 co-treatment
Type: cell-based
Residues, ends and D or L forms follow the SMILES beside them. *: point of attachment. Cbz = O=C(OCc1ccccc1)*; CH2F = FC*
measured_property: effect on cell death induced by co-treatment of FSEN1 with RSL3

compound: CN1C(=O)NC(Cc2c[nH]c3c(Cl)cccc23)C1=O (stereo not shown)
system_name: H460^C cells
recorded_result: no effect
//
compound: COC(=O)C[C@H](NC(=O)[C@H](C)NC(=O)[C@@H](NC(=O)OCc1ccccc1)C(C)C)C(=O)CF [Z-VAD] (Cbz-Val-Ala-Asp(OMe)-CH2F)
system_name: H460^C cells
recorded_result: no effect
//
compound: COC1=C(OC)C(=O)C(CCCCCCCCCCO)=C(C)C1=O
system_name: H460^C cells
recorded_result: blocked
//
compound: CCOC(=O)c1ccc(NC2CCCCC2)c(N)c1
system_name: H460^C cells
recorded_result: blocked
